# assay system: biotinylated CD59 (Homo sapiens)
# Construct: Recombinant soluble human CD59 with an additional C-terminal cysteine residue
# Sequence (P13987 26-102 limits assumed): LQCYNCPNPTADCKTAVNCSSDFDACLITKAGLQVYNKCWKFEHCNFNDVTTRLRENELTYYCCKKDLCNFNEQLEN
# experimental protocol: mRNA-display cyclic peptide screen against CD59-biotin, NGS abundance after 6th selection round
# test settings: counts normalised by total counts of sample Seq I; percentage of the pool, sheet R6
Quick rule for you: Percentage Seq I under 0.04% gets Fulfilled, anything else gets Not fulfilled.

Given `IARGDRTFSFG` , is recorded Percentage Seq I strictly lower than 0.04%?
Fulfilled

Just wondering, is Percentage Seq I of `CYGGRTLIYAWS` below 0.04%?
Fulfilled

In plain terms, does `STRRDRLGLIC` come in under 0.04% for Percentage Seq I?
Not fulfilled

I'd appreciate it if you could check whether `SWTWGNRSSVRG` has Percentage Seq I smaller than 0.04%.
Not fulfilled

Next:
Threshold test, Percentage Seq I < 0.04%: `CFSRRLTAGAT`
Not fulfilled

====

# assay system: biotinylated CD59 (Homo sapiens, UniProt P13987)
# Construct: Recombinant soluble human CD59 with an additional C-terminal cysteine residue
# Sequence (P13987 26-102 limits assumed): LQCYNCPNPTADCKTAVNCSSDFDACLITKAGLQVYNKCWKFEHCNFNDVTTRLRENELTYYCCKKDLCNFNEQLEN
# experimental protocol: mRNA-display cyclic peptide screen against CD59-biotin, NGS abundance after 6th selection round
# test settings: NGS sample Seq I, sheet R6 (6th selection round)
Rule: Counts (raw counts for peptide sequence), Seq I of 40 or more gives Satisfied; anything lower gives Not satisfied.

State whether the measured Counts (raw counts for peptide sequence), Seq I reaches 40, counting equality as reaching it, for `CFSRRLAAGAI`
Not satisfied

Would you say `CFGGRTFIYAWS` shows Counts (raw counts for peptide sequence), Seq I at minimum 40?
Not satisfied

Test whether the sequence `NYVERLCTSG` records Counts (raw counts for peptide sequence), Seq I of 40 or higher.
Satisfied

---
Could you please find out whether `WRDRFDQCVI` has Counts (raw counts for peptide sequence), Seq I that meets 40 or exceeds it?
Not satisfied

Identify whether the reported Counts (raw counts for peptide sequence), Seq I of the following sequence is 40 or greater: `CFTLRVLDVSAV`
Satisfied

I'd appreciate it if you could say whether `CFVLRRNFEGT` has Counts (raw counts for peptide sequence), Seq I at least equal to 40.
Satisfied

====

# assay system: biotinylated CD59 (Homo sapiens, UniProt P13987)
# Construct: Recombinant soluble human CD59 with an additional C-terminal cysteine residue
# Sequence (P13987 26-102 limits assumed): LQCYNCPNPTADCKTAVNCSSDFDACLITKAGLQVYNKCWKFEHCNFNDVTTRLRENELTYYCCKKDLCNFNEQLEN
# experimental protocol: mRNA-display cyclic peptide screen against CD59-biotin, NGS abundance after 6th selection round
# test settings: counts normalised by total counts of sample Seq I; percentage of the pool, sheet R6
# Excerpt: To discover novel non‐protein CD59 ligands, we screened a library of 10^12 cyclic peptides against CD59 using mRNA‐display (Figure 2a).^[ [23], [24], [25], [26], [27], [28], [29] ^] Briefly, an mRNA library was designed in which the start codon was reprogrammed from Met to N‐chloroacetyl‐D‐Tyr (ClAc‐D‐Tyr), followed by 10–12 randomly encoded natural amino acids, a Cys residue, a (GlySer)3 linker, and a stop codon. […]
readout type: Percentage Seq I (%)
Please respond with the number in % and leave the unit unwritten.

Solved entries:
Tell me Percentage Seq I reported for `WSTGSSTFAAG`
0.034

Give a short answer stating reported Percentage Seq I for `CYGGRTFIYARS` .
0.027

More entries:
Quote Percentage Seq I reported for `VAHGSKNSQFW` please.
0.349

Return the recorded Percentage Seq I value; entry: `CFTHRLTDFGT`
0.053

====

# maps each entry to its Percentage Seq II
# assay system: biotinylated CD59 (Homo sapiens, UniProt P13987)
# Construct: Recombinant soluble human CD59 with an additional C-terminal cysteine residue
# Sequence (P13987 26-102 limits assumed): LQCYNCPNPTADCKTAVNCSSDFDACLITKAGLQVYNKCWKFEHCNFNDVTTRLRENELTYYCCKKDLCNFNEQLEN
# experimental protocol: mRNA-display cyclic peptide screen against CD59-biotin, NGS abundance after 6th selection round
# test settings: counts normalised by total counts of sample Seq II; percentage of the pool, sheet R6
The response must be a number in % with no trailing unit.

Check out these entries, answers already filled in.
Answer briefly: Percentage Seq II recorded on biotinylated CD59 (Homo sapiens, UniProt P13987) for `HVSGNRSFTRG`
0.035

Report measured Percentage Seq II on biotinylated CD59 (Homo sapiens, UniProt P13987); entry: `GYLNECWYGLS`
0.081

Report Percentage Seq II on biotinylated CD59 (Homo sapiens, UniProt P13987) for this entry: `STKNDYNNVPC`
0.026

Answer with Percentage Seq II of `YVFGNRSFTRG` measured for biotinylated CD59 (Homo sapiens, UniProt P13987).
0.524

For biotinylated CD59 (Homo sapiens, UniProt P13987), give the measured Percentage Seq II of the entry `CYGGRAFIYAWS`
0.044

Give measured Percentage Seq II for `SSYRELAHLPC` (biotinylated CD59 (Homo sapiens, UniProt P13987)).
0.046

Continue with the sequence presented below.
Please indicate recorded Percentage Seq II of `SSWAQVPCYS` measured with biotinylated CD59 (Homo sapiens, UniProt P13987).
0.032

====

# assay system: biotinylated CD59 (Homo sapiens, UniProt P13987)
# Construct: Recombinant soluble human CD59 with an additional C-terminal cysteine residue
# Sequence (P13987 26-102 limits assumed): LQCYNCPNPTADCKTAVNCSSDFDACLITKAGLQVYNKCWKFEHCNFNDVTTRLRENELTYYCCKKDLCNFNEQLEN
# experimental protocol: mRNA-display cyclic peptide screen against CD59-biotin, NGS abundance after 6th selection round
# test settings: NGS sample Seq II, sheet R6 (6th selection round)
readout type: Counts (raw counts for peptide sequence), Seq II

Field: example entries. Status: answers known.
Tell me measured Counts (raw counts for peptide sequence), Seq II for `HCRVRGSRNYT` please.
6

Answer with the recorded Counts (raw counts for peptide sequence), Seq II of `FVRGDMYSVLG` only.
6

Supply Counts (raw counts for peptide sequence), Seq II value. Item: `CFAYRTHTTAV`
6

Please look at this sequence and report its Counts (raw counts for peptide sequence), Seq II: `CLRKTRDILSV`
6

Hello, please tell me recorded Counts (raw counts for peptide sequence), Seq II for this one: `YSCPDWVRGSRT`
6

***
Consider the sequence `FIRGDSTSVLF` and give its recorded Counts (raw counts for peptide sequence), Seq II.
6

Specify reported Counts (raw counts for peptide sequence), Seq II for the sequence shown: `CFSSRTSLISGV`
6

Give the measured Counts (raw counts for peptide sequence), Seq II for `ISGGRNWRAG`
6

====

# assay system: biotinylated CD59 (Homo sapiens)
# Construct: Recombinant soluble human CD59 with an additional C-terminal cysteine residue
# Sequence (P13987 26-102 limits assumed): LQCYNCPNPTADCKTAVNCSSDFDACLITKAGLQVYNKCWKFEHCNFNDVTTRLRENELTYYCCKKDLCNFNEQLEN
# experimental protocol: mRNA-display cyclic peptide screen against CD59-biotin, NGS abundance after 6th selection round
# test settings: average of Seq I and Seq II, sheet R6
readout type: Percentage of the pool, averaged across the two sequencing samples (%)
Expressed in %, but write only the number.

Quickly give me recorded Percentage of the pool, averaged across the two sequencing samples for `LWWSDFYLCVVVRQRQRQLGRGAE`
0.016

====

# assay system: biotinylated CD59 (Homo sapiens)
# Construct: Recombinant soluble human CD59 with an additional C-terminal cysteine residue
# Sequence (P13987 26-102 limits assumed): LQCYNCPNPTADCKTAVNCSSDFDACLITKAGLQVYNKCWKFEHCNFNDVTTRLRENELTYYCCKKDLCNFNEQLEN
# experimental protocol: mRNA-display cyclic peptide screen against CD59-biotin, NGS abundance after 6th selection round
# test settings: counts normalised by total counts of NGS sample Seq I, sheet R6
Percentage of the pool, Seq I for assorted sequences
Remember to put the unit after the number in your answer.

Consider the worked cases shown below.
Please indicate Percentage of the pool, Seq I recorded for `GRLNECHVTWP`
0.010%

Indicate the recorded Percentage of the pool, Seq I value for this sequence: `RCWVRGSRNYT`
0.010%

# next sequence below
Tell me measured Percentage of the pool, Seq I for `CCGGRTFIYAWS` please.
0.010%
